# System: MALME-3M melanoma
# TEST_DETAILS: NCI-60 one-dose screen, 48 h (100 = growth as untreated, 0 = no growth, -100 = all killed)
# RECORDED_CONDITIONS: 10 µM unless noted
The panel holds about 83,000 compounds, 20% with a hit somewhere; the sample as a whole holds those more often.
VALUE_TYPE: growth (%)
// note: answer is a bare numeric in %

[ask] Fill: growth (MALME-3M melanoma) for this compound CC(C)C(=O)Nc1nc2c(s1)CCCc1ccn(S(=O)(=O)c3ccccc3)c1-2
[reply] 114

[ask] Fill: growth (MALME-3M melanoma) for this compound O=c1c2ccccc2sc2c(N3CCCC3)nc3ccccc3c12
[reply] 136

[ask] Fill: growth (MALME-3M melanoma) for this compound CC(=O)n1cc(/C=C2\N=C(c3ccc(Cl)cc3)N(c3ccc(S(=O)(=O)Nc4nccs4)cc3)C2=O)c2ccccc21
[reply] 120

[ask] Fill: growth (MALME-3M melanoma) for this compound c1nc(SC2=NCCN2)c2[nH]cnc2n1
[reply] 47.3

[ask] Fill: growth (MALME-3M melanoma) for this compound CCC(CC(C)C)Nc1ccc(NC(CC)CC(C)C)cc1 (stereo unspecified)
[reply] 97.7

[ask] Fill: growth (MALME-3M melanoma) for this compound O=[N+]([O-])c1cccc2cc(S(=O)(=O)O)ccc12
[reply] 102

[ask] Fill: growth (MALME-3M melanoma) for this compound CC[C@@]1(O)C(=O)OCc2c1cc1n(c2=O)Cc2c-1nc1ccccc1c2/C=N/OC(C)(C)C
[reply] -15.3

[ask] Fill: growth (MALME-3M melanoma) for this compound COc1ccccc1C(OC(C)=O)OC(C)=O
[reply] 108

[ask] Fill: growth (MALME-3M melanoma) for this compound CCCCCCCCCCCCCCCCNc1ccccc1
[reply] 114

[ask] Fill: growth (MALME-3M melanoma) for this compound O=C(Nc1ccc(-n2ccc3c(NC(=O)c4ccccc4)ncnc32)cc1)Nc1ccc(Cl)c(Cl)c1
[reply] 7.71

[ask] Fill: growth (MALME-3M melanoma) for this compound O=S(c1ccccc1)c1ccc2nnnn2n1 (stereo unspecified)
[reply] 103

----------
# Test system: EKVX NSCLC
# TEST_DETAILS: NCI-60 one-dose screen, 48 h (100 = growth as untreated, 0 = no growth, -100 = all killed)
# RECORDED_CONDITIONS: 10 µM unless noted
The panel holds about 83,000 compounds, 20% with a hit somewhere; the sample as a whole holds those more often.
Decide by growth: equal to or exceeding 80% means t, less means f.

[ask] Does growth meet or surpass 80% for COc1ccc(-c2nn(-c3cccc(Cl)c3)cc2-c2cc(-c3ccc(Br)cc3)[nH]c(=O)c2C#N)cc1 ?
[reply] t

[ask] Does growth meet or surpass 80% for Cc1cn([C@]2(CF)O[C@H](CO)C2C)c(=O)[nH]c1=O (stereo not given in full) ?
[reply] t

[ask] Does growth meet or surpass 80% for Oc1ccc(O)c(-[n+]2ccccc2)c1 ?
[reply] t

[ask] Does growth meet or surpass 80% for c1ccc([Se]CCCN2CCN(CCC[Se]c3ccccc3)CC2)cc1 ?
[reply] f

[ask] Does growth meet or surpass 80% for NC(CCCC(N)C(=O)c1ccccc1)C(=O)O (stereo not given) ?
[reply] t

[ask] Does growth meet or surpass 80% for Cc1c(Cl)ccc2c(C(=O)Cl)cc(-c3ccccc3)nc12 ?
[reply] t

[ask] Does growth meet or surpass 80% for CCN(CC)c1ccc(C2CC(c3cc(OC)c(OC)c(OC)c3)=NN2)cc1 (stereo not given) ?
[reply] f

[ask] Does growth meet or surpass 80% for COc1cc(NS(C)(=O)=O)ccc1Cc1c2ccccc2nc2ccccc12 ?
[reply] f

[ask] Does growth meet or surpass 80% for CCCCCCCCCCCC(=O)OCCNC(=O)C[n+]1ccccc1 ?
[reply] t

----------
# System: SK-OV-3 ovarian
# TEST_DETAILS: NCI-60 one-dose screen, 48 h
# RECORDED_CONDITIONS: 10 µM unless noted
Compounds without any hit were thinned out: in the full panel of roughly 83,000, 20% have a hit. The source made the active and inactive calls. The calls were made as follows: active = growth percent below 10; inactive = the rest.
Field 'call' accepts 1 (yes) = active, 0 (no) = inactive

[ask] Dear colleague, could you share the recorded outcome for C/C(=N/NC(=O)Cn1c2ccccc2c2ccncc21)c1cccs1 when you have a moment?
[reply] 0 (no)

[ask] Dear colleague, could you share the recorded outcome for CSc1nc(N)nc2c1ncn2C when you have a moment?
[reply] 0 (no)

[ask] Dear colleague, could you share the recorded outcome for CO[C@H]1/C=C/C=C/C=C/C[C@H](OC(=O)[C@@H](C)NC(=O)C2CCCCC2)[C@H](C)[C@@H](O)/C(C)=C\CCC2=CC(=O)C=C(NC(=O)C1)C2=O when you have a moment?
[reply] 1 (yes)

[ask] Dear colleague, could you share the recorded outcome for O=C1OC(=O)C2C3CC(c4ccccc43)C12 (stereo not given) when you have a moment?
[reply] 0 (no)

[ask] Dear colleague, could you share the recorded outcome for COC(=O)Nc1nc2ccc(Sc3ccccc3)cc2[nH]1 when you have a moment?
[reply] 0 (no)

[ask] Dear colleague, could you share the recorded outcome for C=C1C(=O)O[C@H]2[C@H]1CC/C(C(=O)NCCOCCOCC(=O)Nc1ccc(OC)c(C(N)=O)c1O)=C\CC[C@@]1(C)O[C@@H]21 when you have a moment?
[reply] 0 (no)

[ask] Dear colleague, could you share the recorded outcome for O=C(O)c1ccc(-c2nn(-c3ccc(C(=O)O)cc3)cc2/C=N/Nc2c(F)c(F)cc(F)c2F)cc1 when you have a moment?
[reply] 0 (no)

[ask] Dear colleague, could you share the recorded outcome for COC(=O)c1oc2c(C(C)=O)c(OCCN3CCCCC3)ccc2c1C when you have a moment?
[reply] 0 (no)

[ask] Dear colleague, could you share the recorded outcome for CC(=O)CC/C=C(\C)[C@H](O)[C@H](C)C(=O)O[C@H]1C[C@H](C)C=C2C=C[C@@]3(C)O[C@@H](O)CC(=O)[C@]3(C)[C@H]21 when you have a moment?
[reply] 1 (yes)

[ask] Dear colleague, could you share the recorded outcome for O=S(=O)(O)c1ccc(F)cc1 when you have a moment?
[reply] 0 (no)

[ask] Dear colleague, could you share the recorded outcome for CCCc1nn2c(CCC(=O)c3nc4ccc([N+](=O)[O-])cc4[nH]3)nnc2s1 when you have a moment?
[reply] 0 (no)

[ask] Dear colleague, could you share the recorded outcome for Cc1nccc2c3ccc(OCc4cn(-c5ccc(Br)cc5)nn4)cc3n(CCCc3ccccc3)c12 when you have a moment?
[reply] 0 (no)

[ask] Dear colleague, could you share the recorded outcome for CC1=C[S+](c2ccccc2)c2cccc3cc4ccccc4c1c23 (stereo not given) when you have a moment?
[reply] 1 (yes)

[ask] Dear colleague, could you share the recorded outcome for CC1OC(n2c3ccccc3c3c4c(c5c6ccccc6[nH]c5c32)C(=O)N(CCN[C@@H]2CCC[C@H]2N)C4=O)CC(O)C1O (stereo not given in full) when you have a moment?
[reply] 0 (no)

[ask] Dear colleague, could you share the recorded outcome for Cc1cc2nc(-c3c(N)ncc(C#N)c3-c3ccc(Cl)cc3)[nH]c2cc1C when you have a moment?
[reply] 0 (no)

[ask] Dear colleague, could you share the recorded outcome for COc1ccc(N)c(S)c1 when you have a moment?
[reply] 0 (no)

[ask] Dear colleague, could you share the recorded outcome for Nc1ccc(S(=O)(=O)Nc2cc(I)cc(I)c2)cc1 when you have a moment?
[reply] 0 (no)

[ask] Dear colleague, could you share the recorded outcome for COc1ccc(-c2nn(-c3ccc(NC(=O)Nc4cc(C(F)(F)F)cc(C(F)(F)F)c4)cc3)cc2-c2ccncc2)cc1Cl when you have a moment?
[reply] 0 (no)

[ask] Dear colleague, could you share the recorded outcome for CC(C)C1(C(C)C)NC(=O)NC1=O when you have a moment?
[reply] 0 (no)

[ask] Dear colleague, could you share the recorded outcome for c1ccc(CNCCN(CCNCc2ccccn2)Cc2ccc3ccccc3c2)nc1 when you have a moment?
[reply] 1 (yes)

----------
# Test system: HOP-92 NSCLC
# TEST_DETAILS: NCI-60 one-dose screen, 48 h (100 = growth as untreated, 0 = no growth, -100 = all killed)
# RECORDED_CONDITIONS: 10 µM unless noted
# Procedure: Growth inhibition of the HOP-92 human Non-Small Cell Lung tumor cell line is measured as a screen for anti-cancer activity. Cells are grown in 96 well plates and exposed to the test compound for 48 hours. Compounds are tested at a single concentration, which is 10^-5 M for most compounds. The reported endpoint is percent growth (GI% or GIPRCNT), where numbers from 0 - 100% represent growth inhibition, and numbers from -100% - 0 represent cell death. […]
This is part of a sample that, as a whole, favours compounds with a hit. Of some 83,000 tested, about 20% had one in any assay.
What growth was measured for each of the following?
// note: answer is a bare numeric in %

[ask] Answer with the recorded growth of O=C(Nc1ccc(-n2cc(-c3ccncc3)c(-c3ccc(O)c(Cl)c3)n2)cc1)Nc1ccc(Cl)c(C(F)(F)F)c1 only.
[reply] -22.9

[ask] Answer with the recorded growth of O=S(=O)(CCN1CCOCC1)Nc1cncc(-c2ccc3ncnc(Nc4ccc(F)c(Cl)c4)c3c2)c1 only.
[reply] 13

[ask] Answer with the recorded growth of COc1ccc(SC2c3ccc(O)cc3Oc3nc(N)c(C#N)c(N)c32)cc1 (stereo not drawn) only.
[reply] 112

[ask] Answer with the recorded growth of O=C(NCCNc1nccc(-c2c(-c3cccc(O)c3)nc3sccn23)n1)c1cc(N2CCOCC2)cc(C(F)(F)F)c1 only.
[reply] 87.7

[ask] Answer with the recorded growth of COc1ccc(-c2ccc(NC(=O)Nc3cccc(C(F)(F)F)c3)c(C)n2)cc1 only.
[reply] 68.8

[ask] Answer with the recorded growth of CCOC(=O)CSc1nnc(-c2cc3c([nH]c4ccccc43)c(-c3cccc(O)c3)n2)n1-c1ccc(C)cc1 only.
[reply] 48.9

[ask] Answer with the recorded growth of CC(=O)Cc1cccnc1 only.
[reply] 102

[ask] Answer with the recorded growth of CN[C@@H](CCCNC(N)=NC/C=C(/C)CCC=C(C)C)C(=O)N(C)[C@@H](CCCNC(N)=NCC=C(C)C)C(=O)N[C@H](C)[C@H](OS(=O)(=O)O)c1ccc(OS(=O)(=O)O)c(COS(=O)(=O)O)c1 only.
[reply] 100
